Data credit: patent US9000184B2

# TEST TARGET: UniProt:P56817
# Sequence (P56817 22-460): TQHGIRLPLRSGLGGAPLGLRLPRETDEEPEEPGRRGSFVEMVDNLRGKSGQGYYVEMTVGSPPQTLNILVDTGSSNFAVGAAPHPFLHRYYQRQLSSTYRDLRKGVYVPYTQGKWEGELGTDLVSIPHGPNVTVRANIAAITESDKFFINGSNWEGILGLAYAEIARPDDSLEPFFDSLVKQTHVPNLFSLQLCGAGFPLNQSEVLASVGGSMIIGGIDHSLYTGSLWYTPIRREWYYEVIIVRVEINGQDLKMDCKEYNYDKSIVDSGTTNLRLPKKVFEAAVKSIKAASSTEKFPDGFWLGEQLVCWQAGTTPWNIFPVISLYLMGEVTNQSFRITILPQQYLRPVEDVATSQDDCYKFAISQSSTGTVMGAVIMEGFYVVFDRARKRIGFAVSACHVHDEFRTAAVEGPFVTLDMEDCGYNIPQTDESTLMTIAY
# METHOD NOTES: Diluted TR-FRET assay
# Type: biochemical
# CONDITION DETAILS: footnote a: diluted FRET assay, 50 times less enzyme, 6.5 h reaction time at r.t.; read-out: IC50 in TR-FRET assay (IC50 from the diluted FRET assay)
The label is Met for IC50 below 5 nM and Not met for IC50 equal to or exceeding 5 nM.

Regarding COC1CCC2(CCc3ccc(-c4cc(Cl)cc(C#N)c4)cc3C23N=C(C)C(N)=N3)CC1 (single isomer, unassigned; isomer 1) [10, isomer 1] , kindly confirm whether its IC50 is beneath 5 nM.
Not met

Ok, now CO[C@H]1CC[C@]2(CCc3ccc(-c4cc(Cl)cc(C#N)c4)cc3C23N=C(C)C(N)=N3)CC1 (single isomer, unassigned; isomer 1) [11, isomer 1]
Met

Ok, now CC1=NC2(N=C1N)c1cc(-c3cc(Cl)cc(C#N)c3)ccc1CCC21CC1 (centres unmarked) [Example 9]
Not met

Ok, now CO[C@H]1CC[C@@]2(CCc3ccc(-c4cncc(Cl)c4)cc3C23N=C(C)C(N)=N3)CC1 (single isomer, unassigned; isomer 1) [7, isomer 1]
Not met
